Data origin, for the record: patent US9006257B2

Biological target: Recombinant human mPGES-1 (Homo sapiens, UniProt O14684)
Construct: made in house; host or cells: CHO cells
Sequence (O14684 whole entry): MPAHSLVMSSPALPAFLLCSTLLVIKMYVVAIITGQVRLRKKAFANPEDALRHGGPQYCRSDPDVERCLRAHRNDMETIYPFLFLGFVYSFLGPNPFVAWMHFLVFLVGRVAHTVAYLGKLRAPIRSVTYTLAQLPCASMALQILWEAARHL
Assay: In-vitro mPGES-1 inhibitor screening (inhibition of PGE2 formation from PGH2, HTRF detection)
Format: biochemical
Settings: 1 μM test compound; crude microsomal fraction, 15 μM PGH2; read-out: Percentage inhibition at 1 μM
Measured inhibition at 1 µM, listed per entry.
ATTRIBUTE_MEASURED: inhibition at 1 µM (%)

- CHEMICAL_SMILES: "CC(C)Oc1ncnc2c(NC(=O)c3c(Cl)ccc(CNC(=O)C(C)(C)C)c3F)cccc12"
  ATTRIBUTE_MEASURED: "inhibition at 1 µM"
  VALUE_REPORTED: 97.5
- CHEMICAL_SMILES: "CC(C)(C)C(=O)NCc1ccc(Cl)c(C(=O)Nc2cccc3c(Oc4ccc(F)c(C(F)(F)F)c4)nccc23)c1"
  ATTRIBUTE_MEASURED: "inhibition at 1 µM"
  VALUE_REPORTED: 91.1
- CHEMICAL_SMILES: "Cc1ccc(CNC(=O)C(C)(C)C)c(C)c1C(=O)Nc1cccc2c(Nc3cccc(C(F)(F)F)c3)nccc12"
  ATTRIBUTE_MEASURED: "inhibition at 1 µM"
  VALUE_REPORTED: 96
- CHEMICAL_SMILES: "Cc1nc(NC(C)(C)C)c2cccc(NC(=O)c3c(Cl)ccc(CNC(=O)C(C)(C)C)c3F)c2n1"
  ATTRIBUTE_MEASURED: "inhibition at 1 µM"
  VALUE_REPORTED: 94
- CHEMICAL_SMILES: "CC(C)(C)C(=O)NCc1ccc(Cl)c(C(=O)Nc2cccc3c(NC4CCC(F)(F)CC4)ncnc23)c1F"
  ATTRIBUTE_MEASURED: "inhibition at 1 µM"
  VALUE_REPORTED: 98.8
- CHEMICAL_SMILES: "CC(C)(C)C(=O)NCc1ccc(Cl)c(C(=O)Nc2cccc3c(Oc4cccc(C(F)(F)F)c4)nccc23)n1"
  ATTRIBUTE_MEASURED: "inhibition at 1 µM"
  VALUE_REPORTED: 93
- CHEMICAL_SMILES: "CC(C)(C)C(=O)NCc1ccc(Cl)c(C(=O)Nc2cccc3c(Oc4ccc(F)c(C(F)(F)F)c4)ccnc23)c1F"
  ATTRIBUTE_MEASURED: "inhibition at 1 µM"
  VALUE_REPORTED: 99.3
- CHEMICAL_SMILES: "CC1(C)CCC(Nc2nc(C(F)(F)F)nc3c(NC(=O)c4c(Cl)ccc(CNC(=O)C(C)(C)C)c4F)cccc23)CC1"
  ATTRIBUTE_MEASURED: "inhibition at 1 µM"
  VALUE_REPORTED: 94.5
- CHEMICAL_SMILES: "CN(C)c1ncnc2c(NC(=O)c3c(Cl)ccc(CNC(=O)C(C)(C)C)c3F)cccc12"
  ATTRIBUTE_MEASURED: "inhibition at 1 µM"
  VALUE_REPORTED: 88.3
- CHEMICAL_SMILES: "CC(C)(C)C(=O)NCc1ccc(Cl)c(C(=O)Nc2cccc3c(NC4CCC(F)(F)CC4)ncnc23)c1"
  ATTRIBUTE_MEASURED: "inhibition at 1 µM"
  VALUE_REPORTED: 100
- CHEMICAL_SMILES: "CC(C)(C)C(=O)NCc1ccc(Cl)c(C(=O)Nc2cccc3c(Oc4cccc(C(F)(F)F)c4)ncnc23)c1F"
  ATTRIBUTE_MEASURED: "inhibition at 1 µM"
  VALUE_REPORTED: 97.4
- CHEMICAL_SMILES: "CC(C)Nc1ncnc2c(NC(=O)c3c(Cl)ccc(CNC(=O)C(C)(C)C)c3F)cccc12"
  ATTRIBUTE_MEASURED: "inhibition at 1 µM"
  VALUE_REPORTED: 90.6
- CHEMICAL_SMILES: "CC(C)(C)C(=O)NCc1ccc(Cl)c(C(=O)Nc2cccc3c(Nc4cccc(C(F)(F)F)c4)ncnc23)c1"
  ATTRIBUTE_MEASURED: "inhibition at 1 µM"
  VALUE_REPORTED: 90.2
- CHEMICAL_SMILES: "CC(C)(C)Nc1ncnc2c(NC(=O)c3cc(CNC(=O)C(C)(C)C)ccc3Cl)cccc12"
  ATTRIBUTE_MEASURED: "inhibition at 1 µM"
  VALUE_REPORTED: 96.5
- CHEMICAL_SMILES: "CC(C)(C)C(=O)NCc1ccc(Cl)c(C(=O)Nc2cccc3c(Oc4ccc(C(F)(F)F)cc4)nccc23)c1"
  ATTRIBUTE_MEASURED: "inhibition at 1 µM"
  VALUE_REPORTED: 89.4
